# Assayed Target: A1-AdoR (Rattus norvegicus, UniProt P25099)
# Sequence (P25099 whole entry): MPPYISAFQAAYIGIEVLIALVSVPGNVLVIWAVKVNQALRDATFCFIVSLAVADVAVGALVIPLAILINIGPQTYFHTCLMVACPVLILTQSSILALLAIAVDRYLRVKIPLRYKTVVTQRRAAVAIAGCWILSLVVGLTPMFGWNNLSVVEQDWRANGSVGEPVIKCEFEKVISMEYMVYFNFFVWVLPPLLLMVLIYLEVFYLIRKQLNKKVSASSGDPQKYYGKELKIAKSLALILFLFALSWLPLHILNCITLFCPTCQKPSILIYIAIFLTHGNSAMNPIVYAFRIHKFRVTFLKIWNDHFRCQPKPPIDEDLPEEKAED
# Procedure Details: 3H-CPX binding to rat adipocyte membranes
# Condition Description: Ki for reduction of 3H-CPX binding, absence of GTP
Experimental Readout: Ki (nM)
Write the value in nM as a bare number.

In: Item CNC(=O)OC[C@H]1OC(n2cnc3c(N[C@@H]4CCOC4)ncnc32)[C@H](O)[C@@H]1O (stereo partly shown) has what recorded Ki?
Out: 62

* * *

# Assayed Target: A1-AdoR (Cavia porcellus, UniProt P47745)
# Sequence (P47745 1-326): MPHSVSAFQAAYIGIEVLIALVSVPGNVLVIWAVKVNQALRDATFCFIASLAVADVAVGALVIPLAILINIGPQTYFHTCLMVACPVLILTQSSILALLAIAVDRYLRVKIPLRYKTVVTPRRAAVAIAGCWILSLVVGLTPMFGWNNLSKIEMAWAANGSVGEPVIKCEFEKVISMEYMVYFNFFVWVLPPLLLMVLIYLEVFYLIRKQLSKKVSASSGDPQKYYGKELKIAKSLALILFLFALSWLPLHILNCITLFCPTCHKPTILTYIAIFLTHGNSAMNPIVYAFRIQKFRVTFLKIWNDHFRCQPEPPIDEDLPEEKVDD
# Procedure Details: 3H-CPX binding to guinea pig forebrain membranes
# Condition Description: Ki for reduction of 3H-CPX binding, absence of GTP
# Description: Membranes containing A1-AdoRs for use in radioligand binding assays were prepared from guinea pig cerebral cortex or from rat isolated epididymal adipocytes. Freshly-isolated guinea pig brain cortical tissue was homogenized in ice-cold 50 mM Tris-HCl buffer (pH 7.4) using six up and down strokes of an ice-chilled Potter-Elvejhem tissue grinder and a motor-driven teflon™ pestle. […] The binding affinity of experimental agonists high and low affinity states of the A1-ADOR was determined. […]
Below is a list of entries, each paired with its recorded Ki value.
Write the value in nM as a bare number.

* CNC(=O)OC[C@H]1OC(n2cnc3c(N[C@@H]4CCOC4)ncnc32)[C@H](O)[C@@H]1O (some centres unmarked) [Compound 6 of Example 2] | 1800

Note: attention shifts to another entry.
In: Entry OC[C@H]1O[C@@H](n2cnc3c(NC4CCCC4)ncnc32)[C@H](O)[C@@H]1O [CPA, N^6-cyclopentyladenosine, reference compound] , system A1-AdoR (Cavia porcellus, UniProt P47745): what Ki was measured?
Out: 1.7

The measured values listed here are drawn from patent US6576620B2.
